The reported numbers originate from patent US20100261766A1.

- TARGET ENTITY: S1P5 receptor (Homo sapiens)
- Sequence (Q9H228 whole entry): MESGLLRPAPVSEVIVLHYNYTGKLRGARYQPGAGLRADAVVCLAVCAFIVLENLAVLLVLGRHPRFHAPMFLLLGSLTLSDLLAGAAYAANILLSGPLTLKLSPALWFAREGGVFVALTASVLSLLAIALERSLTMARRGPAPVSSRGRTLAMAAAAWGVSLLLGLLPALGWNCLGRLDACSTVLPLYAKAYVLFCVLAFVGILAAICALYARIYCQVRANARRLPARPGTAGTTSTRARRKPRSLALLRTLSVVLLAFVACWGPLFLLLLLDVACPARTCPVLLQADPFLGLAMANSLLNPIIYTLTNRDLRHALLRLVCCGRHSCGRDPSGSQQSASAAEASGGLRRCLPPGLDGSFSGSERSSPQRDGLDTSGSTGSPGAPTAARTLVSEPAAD
- ASSAY: S1P5 GTP[γ-35S] binding assay, membranes of CHO cells
- CONDITIONS: agonistic activity in vitro; read-out: S1P-5 GTPyS/EC50
pEC50: −log10 of the molar value.
REPORTED ENDPOINT: pEC50

- CHEMICAL STRING: "CC(=O)c1cc(-c2nc(-c3ccc(C4(O)COC4)cc3)no2)ccc1OC(C)C"
  pEC50: 6.51
- CHEMICAL STRING: "CCOc1ccc(-c2nc(-c3ccc(C4(N)COC4)cc3)no2)cc1C#N"
  pEC50: 6.52
- CHEMICAL STRING: "CC(=O)c1cc(-c2nc(-c3ccc(C4(N)COC4)cc3)no2)ccc1OC(C)C"
  pEC50: 6.74

[a] CCOc1ccc(-c2nc(-c3ccc(C4(O)COC4)cc3)no2)cc1C#N
[b] CC(C)Oc1ccc(-c2nc(-c3ccc(C4(O)COC4)cc3)no2)cc1C#N
[c] CC(C)Oc1ccc(-c2nc(-c3ccc(C4(N)COC4)cc3)no2)cc1C#N
Inquiry: # rank_down: sort by pEC50, max first Lab note: final answer is the ordered label list.
Reply text: b, c, a
(b: 7.52, c: 7.05, a: 6.55)

====

- TARGET ENTITY: human S1P1 (EDG-1) receptor (Homo sapiens, UniProt P21453)
- Construct: c-myc (N)
- Sequence (P21453 whole entry): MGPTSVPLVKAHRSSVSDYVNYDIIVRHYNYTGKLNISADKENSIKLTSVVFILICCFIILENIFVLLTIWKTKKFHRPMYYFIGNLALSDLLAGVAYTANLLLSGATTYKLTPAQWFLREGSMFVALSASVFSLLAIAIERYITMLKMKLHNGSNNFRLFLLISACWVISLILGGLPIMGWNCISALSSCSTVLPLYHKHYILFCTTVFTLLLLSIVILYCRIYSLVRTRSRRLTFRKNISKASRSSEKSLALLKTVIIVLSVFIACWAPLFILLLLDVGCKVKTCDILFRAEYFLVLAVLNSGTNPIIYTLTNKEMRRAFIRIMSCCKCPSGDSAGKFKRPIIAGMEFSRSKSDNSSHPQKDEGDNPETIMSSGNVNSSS
- ASSAY: S1P1 (EDG-1) GTP[γ-35S] binding assay, membranes of CHO cells
- CONDITIONS: agonistic activity in vitro; read-out: S1P-1 GTPyS/EC50
pEC50: −log10 of the molar value.
REPORTED ENDPOINT: pEC50

- CHEMICAL STRING: "CC(C)Oc1ccc(-c2nc(-c3ccc(C4(N)COC4)cc3)no2)cc1C#N"
  OBSERVED RESULT: 8.00
- CHEMICAL STRING: "CCOc1ccc(-c2nc(-c3ccc(C4(N)COC4)cc3)no2)cc1C#N"
  OBSERVED RESULT: 7.77
- CHEMICAL STRING: "CC(=O)c1cc(-c2nc(-c3ccc(C4(N)COC4)cc3)no2)ccc1OC(C)C"
  OBSERVED RESULT: 7.89
- CHEMICAL STRING: "CCOc1ccc(-c2nc(-c3ccc(C4(O)COC4)cc3)no2)cc1C#N"
  OBSERVED RESULT: 7.54

[a] CC(=O)c1cc(-c2nc(-c3ccc(C4(O)COC4)cc3)no2)ccc1OC(C)C
[b] CC(C)Oc1ccc(-c2nc(-c3ccc(C4(O)COC4)cc3)no2)cc1C#N
Inquiry: Which entry has a larger number for pEC50, a or b ? Respond using the label that marks the chosen record.
Reply text: b
(b: 8.22, a: 7.60)
